biological target: human S1P3 receptor (Homo sapiens (Human), UniProt Q99500); test: Activation or block of activation of human S1P3 receptor, Ca+2 FLIPR assay; assay type: cell-based; settings: T24 cells stably expressing the human S1P3 receptor; FLIPR Ca+2 response; 0.61 nM to 10,000 nM; read-out: S1P3 IC50
Sequence (Q99500 whole entry): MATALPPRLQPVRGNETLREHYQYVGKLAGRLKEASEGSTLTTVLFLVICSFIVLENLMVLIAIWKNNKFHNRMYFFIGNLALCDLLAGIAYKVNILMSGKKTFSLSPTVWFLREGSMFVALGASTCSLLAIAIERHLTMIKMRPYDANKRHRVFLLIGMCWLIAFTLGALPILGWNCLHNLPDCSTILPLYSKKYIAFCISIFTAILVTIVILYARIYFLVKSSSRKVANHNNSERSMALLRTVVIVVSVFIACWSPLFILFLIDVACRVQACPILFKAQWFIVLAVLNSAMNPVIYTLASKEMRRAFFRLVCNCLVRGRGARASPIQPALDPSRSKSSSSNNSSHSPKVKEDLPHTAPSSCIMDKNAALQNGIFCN
Readout Kind: IC50 (µM)
Give bare numbers, in µM.

Consider the following illustrative entries.
CC(C)COc1ccc2c(C(=O)NCc3ccc(F)c(F)c3)c(C(C)C)n(Cc3ccccc3)c2c1	0.0012
CC(C)c1c(C(=O)NCc2ccc(F)c(F)c2)c2ccc(OCc3ncco3)cc2n1Cc1ccccc1	0.89
CCOC(=O)c1ccc2c(C(=O)NCc3ccccc3)c(C(C)C)n(Cc3ccccc3)c2c1	0.009
C#CCNC(=O)c1ccc2c(C(=O)NCc3ccc(F)c(F)c3)c(C(C)C)n(Cc3ccccc3)c2c1	5
CC(C)CO/N=C/c1ccc2c(C(=O)NCc3ccc(F)c(F)c3)c(C(C)C)n(Cc3ccccc3)c2c1	0.088
CC(C)C(=O)Nc1ccc2c(C(=O)NCc3ccc(F)c(F)c3)c(C(C)C)n(Cc3ccccc3)c2c1	0.89
CC(C)NCc1ccc2c(C(=O)NCc3ccc(F)c(F)c3)c(C(C)C)n(Cc3ccccc3)c2c1	2.3

The record that follows has no IC50 shown yet.
Challenge: Please look up its IC50: CCOC(=O)c1ccc2c(C(=O)NCc3cncc(F)c3)c(C(C)C)n(Cc3ccccn3)c2c1
Response given: 0.87

----------
Provide the recorded S1P3 (% inh) for the entries that follow.
molecular target: human S1P3 receptor (Homo sapiens (Human)); assay: Activation or block of activation of human S1P3 receptor, Ca+2 FLIPR assay; type: cell-based; conditions: T24 cells stably expressing the human S1P3 receptor; value in brackets
Answers are plain numbers, in %.

Consider the following illustrative entries.
CC(C)c1c(C(=O)NCc2ccc(F)c(F)c2)c2ccc(CN3CCCC3)cc2n1Cc1ccccc1	93
CC(C)c1c(C(=O)NCc2ccc(F)c(F)c2)c2ccc(C3=NC(C)(C)CO3)cc2n1Cc1ccccc1 [Compound 71]	97
CCCCOC(=O)c1ccc2c(C(=O)NCc3ccc(F)c(F)c3)c(C(C)C)n(Cc3ccccc3)c2c1	97

Challenge: Please look up its S1P3 (% inh): Cc1cc(Cn2c(C(C)C)c(C(=O)NCc3ccc(F)c(F)c3)c3ccc(OC4CCCC4)cc32)no1 [Compound 219]
Response given: 99

----------
molecular target: human S1P3 receptor (Homo sapiens (Human), UniProt Q99500); assay: Activation or block of activation of human S1P3 receptor, Ca+2 FLIPR assay; assay type: cell-based; conditions: T24 cells stably expressing the human S1P3 receptor; value in brackets
Provide the recorded S1P3 (% inh) for the entries that follow.
Numbers only, in %.

CC(C)c1c(C(=O)NCc2ccc(F)c(F)c2)c2ccc(CN(C)C)cc2n1Cc1ccccc1	98
CCCNC(=O)c1ccc2c(C(=O)NCc3ccc(F)c(F)c3)c(C(C)C)n(Cc3ccccc3)c2c1	99
CC(C)c1c(C(=O)NCc2cncc(F)c2)c2ccc(OC3CCCC3)cc2n1Cc1cccnc1	100
CC(C)Oc1ccc2c(C(=O)NCc3ccc(F)c(F)c3)c(C(C)C)n(Cc3cccnc3)c2c1	100
CC(C)c1c(C(=O)NCc2ccc(F)c(F)c2)c2ccc(C3=N[C@@H](C)CO3)cc2n1Cc1ccccc1	99
CCCNCc1ccc2c(C(=O)NCc3ccc(F)c(F)c3)c(C(C)C)n(Cc3ccccc3)c2c1	77
CC(C)c1c(C(=O)NCc2ccc(F)c(F)c2)c2ccc(C(=O)N(C)C)cc2n1Cc1ccccc1	100

The record that follows has no S1P3 (% inh) shown yet.
Challenge: Please look up its S1P3 (% inh): CC(=O)c1c(C(=O)NCc2ccc(F)c(F)c2)c2ccc(OC(C)C)cc2n1Cc1ccccn1
Response given: 99

----------
biological target: human S1P3 receptor (Homo sapiens (Human), UniProt Q99500); assay: Activation or block of activation of human S1P3 receptor, Ca+2 FLIPR assay; assay type: cell-based; details: T24 cells stably expressing the human S1P3 receptor; FLIPR Ca+2 response; 0.61 nM to 10,000 nM; read-out: S1P3 IC50
Provide the recorded pIC50 for the entries that follow.
Answers are plain numbers, as −log10 of the molar value.

CC(C)c1c(C(=O)NCc2ccc(F)c(F)c2)c2ccc(Oc3nccs3)cc2n1Cc1ncco1	7.28
CC(C)Oc1ccc2c(C(=O)NCc3ccc(F)c(F)c3)c(C=O)n(Cc3ccccn3)c2c1	6.31
CC(C)c1c(C(=O)NCc2ccc(F)c(F)c2)c2ccc(N)cc2n1Cc1ccccc1	5.77
CC[C@H]1COC(c2ccc3c(C(=O)NCc4cncc(F)c4)c(C(C)C)n(Cc4ccccc4)c3c2)=N1	7.46
CC(=O)c1c(C(=O)NCc2ccc(F)c(F)c2)c2ccc(OC(C)C)cc2n1Cc1ccccn1	7.68
CCNC(=O)c1ccc2c(C(=O)NCc3ccc(F)c(F)c3)c(C(C)C)n(Cc3ccccc3)c2c1	6.46
COC[C@H]1COC(c2ccc3c(C(=O)NCc4ccc(F)c(F)c4)c(C(C)C)n(Cc4ccccc4)c3c2)=N1	7.34
CO/N=C/c1ccc2c(C(=O)NCc3ccc(F)c(F)c3)c(C(C)C)n(Cc3ccccn3)c2c1	6.86

Respectfully, I request pIC50 for each entry included below.
1. CC(C)c1c(C(=O)NCc2ccc(F)c(F)c2)c2ccc(C3=N[C@H](C)CO3)cc2n1Cc1ccccc1
2. CC[C@H]1COC(c2ccc3c(C(=O)NCc4ccc(F)c(F)c4)c(C(C)C)n(Cc4ncco4)c3c2)=N1
3. CC(C)c1c(C(=O)NCc2ccc(F)c(F)c2)c2ccc(CN(C)C)cc2n1Cc1ccccc1
4. CC(C)c1c(C(=O)NCc2ccc(F)c(F)c2)c2ccc(C3=N[C@@H](C)CO3)cc2n1Cc1ccccc1
5. CC(C)c1c(C(=O)NCc2ccc(F)c(F)c2)c2ccc(O)cc2n1Cc1ccccc1
6. [2H]C([2H])([2H])C([2H])(Oc1ccc2c(C(=O)NCc3ccc(F)c(F)c3)c(C(=C)C)n(Cc3ccccn3)c2c1)C([2H])([2H])[2H]

Response given:
1: 7.31; 2: 6.55; 3: 6.00; 4: 7.48; 5: 5.51; 6: 7.29

Respectfully, I request pIC50 for each entry included below.
1. CCCNC(=O)c1ccc2c(C(=O)NCc3ccc(F)c(F)c3)c(C(C)C)n(Cc3ccccc3)c2c1
2. CC(C)c1c(C(=O)NCc2ccc(F)c(F)c2)c2ccc(OC3CCCC3)cc2n1Cc1ncco1

Response given:
1. 6.84
2. 8.00

----------
biological target: human S1P3 receptor (Homo sapiens (Human), UniProt Q99500); assay: Activation or block of activation of human S1P3 receptor, Ca+2 FLIPR assay; format: cell-based; conditions: T24 cells stably expressing the human S1P3 receptor; FLIPR Ca+2 response; 0.61 nM to 10,000 nM; read-out: S1P3 IC50
Provide the recorded pIC50 for the entries that follow.
Give bare numbers, as −log10 of the molar value.

Consider the following illustrative entries.
CC(C)c1c(C(=O)NCc2ccc(F)c(F)c2)c2ccc(N(C)C3CCCC3)cc2n1Cc1ccccc1	7.06
CCO/N=C(\C)c1ccc2c(C(=O)NCc3ccc(F)c(F)c3)c(C(C)C)n(Cc3ccccc3)c2c1	6.58
CC(C)Oc1ccc2c(C(=O)NCc3ccc(F)c(F)c3)c(CO)n(Cc3ccccn3)c2c1	6.16

The record that follows has no pIC50 shown yet.
Challenge: Please look up its pIC50: CC(C)c1c(C(=O)NCc2ccc(F)c(F)c2)c2ccc(OC(=O)N(C)C)cc2n1Cc1ccccc1
Response given: 7.62

----------
Provide the recorded S1P3 (% inh) for the entries that follow.
target: human S1P3 receptor (Homo sapiens (Human), UniProt Q99500); assay: Activation or block of activation of human S1P3 receptor, Ca+2 FLIPR assay; assay type: cell-based; settings: T24 cells stably expressing the human S1P3 receptor; value in brackets
Give bare numbers, in %.

CC(C)c1c(C(=O)NCc2ccc(F)c(F)c2)c2ccc(Oc3ncc(Br)s3)cc2n1Cc1ncco1	99
CC(C)Oc1ccc2c(C(=O)NCc3ccc(F)c(F)c3)c(C=O)n(Cc3ccccn3)c2c1	98
CC(C)c1c(C(=O)NCc2ccc(F)c(F)c2)c2ccc(NC3CCOC3)cc2n1Cc1ccccc1 (stereo not shown)	100
CC(C)c1c(C(=O)NCc2ccc(F)c(F)c2)c2ccc(OCCN(C)C)cc2n1Cc1ccccc1	94
CC(C)c1c(C(=O)NCc2ccc(F)c(F)c2)c2ccc(Oc3nccs3)cc2n1Cc1ncco1	100
CC(C)c1c(C(=O)NCc2ccc(F)cc2)c2ccc(C3=N[C@@H](C)CO3)cc2n1Cc1ccccn1	100

Respectfully, I request S1P3 (% inh) for each entry included below.
1. CC(C)c1c(C(=O)NCc2ccc(F)c(F)c2)c2ccc(OC3CCNC3)cc2n1Cc1ccccc1 (stereo not shown)
2. COc1ccc2c(C(=O)NCc3ccc(F)c(F)c3)c(C(C)C)n(Cc3ccccc3)c2c1
3. CC(C)c1c(C(=O)NCc2ccc(F)c(F)c2)c2ccc(OC3CCOC3=O)cc2n1Cc1ccccc1 (stereo not shown)
4. CC(C)c1c(C(=O)NCc2ccc(F)cc2)c2ccc(NC3CCC3)cc2n1Cc1ccccc1
5. CCOC(=O)c1ccc2c(C(=O)NCc3ccccc3)c(C(C)C)n(Cc3ccccc3)c2c1
6. CC(C)c1c(C(=O)NCc2ccc(F)c(F)c2)c2ccc(OC3CCOC3)cc2n1Cc1ccccn1 (stereo not shown)
7. CC(C)c1c(C(=O)NCc2cc(F)cc(F)c2)c2ccc(NC3CCCC3)cc2n1Cc1ccccc1
8. CCNC(=O)c1ccc2c(C(=O)NCc3ccc(F)c(F)c3)c(C(C)C)n(Cc3ccccc3)c2c1

Response given:
1: 80; 2: 98; 3: 100; 4: 99; 5: 96; 6: 100; 7: 99; 8: 99

Challenge: Could you share what S1P3 (% inh) was measured for CC(C)c1c(C(=O)NCc2ccc(F)c(F)c2)c2ccc(OC3CCN(C(=O)OC(C)(C)C)C3)cc2n1Cc1ccccc1 (stereo not shown) , tested on human S1P3 receptor (Homo sapiens (Human), UniProt Q99500)?
Response given: 100
